- Test system: aggregation of 103Q in PC12 cells
- PROTOCOL_TEXT: polyQ (103Q) aggregation in ecdyson-inducible PC12 cells
- Type: cell-based, rat
- CONDITION: Rattus norvegicus, PC-12; PC12 cells; focus library analogs, 0.025 μM to 5.0 μM; read-out: IC50, polyQ aggregation
IC50 listing for selected compounds.
Give just the number in nM; leave the unit off.

[
  {
    "COMPOUND": "O=C(Nc1ccc(Br)cc1)c1cccc(S(=O)(=O)Nc2ccc(Br)cc2)c1",
    "IC50, nM": 50
  },
  {
    "COMPOUND": "O=C1c2cccc3c(N4CCCCC4)ccc(c23)C(=O)N1CO",
    "IC50, nM": 100
  }
]

We next turn to a different compound, shown below.
# IC50 (compound: c1ccc(-c2nc3cnc4ccccc4c3s2)cc1 [Compound C3-6, 2-Phenyl-thiazolo[4,5-c]quinoline] ) is 5000
